# target.or.test.system: GST-UBA5 (Homo sapiens, UniProt Q9GZZ9)
# Construct: made in house
# Sequence (Q9GZZ9 whole entry): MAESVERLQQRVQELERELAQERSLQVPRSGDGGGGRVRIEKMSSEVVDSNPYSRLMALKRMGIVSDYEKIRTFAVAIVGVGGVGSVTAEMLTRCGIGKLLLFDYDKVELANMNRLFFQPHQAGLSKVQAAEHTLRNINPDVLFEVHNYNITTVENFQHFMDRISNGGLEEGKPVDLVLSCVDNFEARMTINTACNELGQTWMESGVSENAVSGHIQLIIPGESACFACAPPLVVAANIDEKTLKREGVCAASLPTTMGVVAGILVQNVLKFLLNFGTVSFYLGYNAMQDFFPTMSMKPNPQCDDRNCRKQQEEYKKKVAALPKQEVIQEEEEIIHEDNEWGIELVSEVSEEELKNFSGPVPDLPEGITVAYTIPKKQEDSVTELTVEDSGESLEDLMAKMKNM
# assay.summary: UBA5 transthiolation assay (UFC1-UFM1 conjugate formation)
# Type: biochemical
# experimental.parameters: Table 3, n = 3, tested 0.1-100 μM; read-out: IC50
pIC50: −log10 of the molar value.
property.measured: pIC50

// query Any idea what pIC50 was measured for Nc1ncnc2c1ncn2[C@@H]1O[C@H](C(=O)NCCCCCC(=O)N2CCNCCNCCNCC2)[C@@H](O)[C@H]1O.O=S(=O)([O-])C(F)(F)F.O=S(=O)([O-])C(F)(F)F.[Cu+2] [Compound 1.5.Cu] ?
// result < 4.00

----------
# target.or.test.system: GST-UBA5 (Homo sapiens, UniProt Q9GZZ9)
# Construct: made in house
# assay.summary: UBA5 transthiolation assay (UFC1-UFM1 conjugate formation)
# Assay type: biochemical
# experimental.parameters: Table 1, transthiolation enzymatic assay; read-out: IC50
property.measured: pIC50
# log scale: pIC50 equals minus log10 of the concentration in mol/L

Consider the reported pIC50 for these compounds:
compound	target.or.test.system	pIC50
Nc1ncnc2c1ncn2[C@@H]1O[C@H](C(=O)NCCCCC(=O)N2CCNCCNCCNCC2)[C@@H](O)[C@H]1O.[Zn+2] [Compound 1.4.Zn]	GST-UBA5 (Homo sapiens, UniProt Q9GZZ9)	5.28
Nc1ncnc2c1ncn2[C@@H]1O[C@H](C(=O)NCCCCCC(=O)N2CCNCCNCCNCC2)[C@@H](O)[C@H]1O.O=S(=O)([O-])C(F)(F)F.O=S(=O)([O-])C(F)(F)F.[Zn+2] [Compound 1.5.Zn]	GST-UBA5 (Homo sapiens, UniProt Q9GZZ9)	5.40

// query Any idea what pIC50 was measured for Nc1ncnc2c1ncn2[C@@H]1O[C@H](C(=O)NCCC(=O)N2CCNCCNCCNCC2)[C@@H](O)[C@H]1O.[Zn+2] [Compound 1.2.Zn] ?
// result 5.05

// query Any idea what pIC50 was measured for Nc1ncnc2c1ncn2[C@@H]1O[C@H](C(=O)NCCCC(=O)N2CCNCCNCCNCC2)[C@@H](O)[C@H]1O.[Zn+2] [Compound 1.3.Zn] ?
// result 4.63

----------
# target.or.test.system: GST-UBA5 (Homo sapiens)
# Construct: made in house
# assay.summary: UBA5 transthiolation assay (UFC1-UFM1 conjugate formation)
# Type: biochemical
# experimental.parameters: Table 6, n = 3; read-out: IC50
property.measured: pIC50
# log scale: pIC50 equals minus log10 of the concentration in mol/L

// query I'm curious: which pIC50 was measured for O=C(NCCCCCC(=O)N1CCNCCNCCNCC1)[C@H]1O[C@@H](n2cnc3c(N[C@H]4CCc5ccccc54)ncnc32)[C@H](O)[C@@H]1O.[Zn+2] [Compound 1.5.An6.Zn] tested on GST-UBA5 (Homo sapiens)?
// result 4.87

----------
Below, each entry is listed alongside its reported pIC50.
# target.or.test.system: GST-UBA5 (Homo sapiens, UniProt Q9GZZ9)
# Construct: made in house
# assay.summary: UBA5 transthiolation assay (UFC1-UFM1 conjugate formation)
# Assay type: biochemical
# experimental.parameters: Table 5, n = 3; read-out: IC50
# log scale: pIC50 equals minus log10 of the concentration in mol/L

structure.smiles	target.or.test.system	pIC50
Nc1ncnc2c1ncn2[C@@H]1O[C@H](C(=O)NCCN2CCCNCCNCCCNCC2)[C@@H](O)[C@H]1O.[Zn+2]	GST-UBA5 (Homo sapiens, UniProt Q9GZZ9)	4.70
Nc1ncnc2c1ncn2[C@@H]1O[C@H](C(=O)NCCCCCC(=O)N2CCNCCNCCNCC2)[C@@H](O)[C@H]1O.O=S(=O)([O-])C(F)(F)F.O=S(=O)([O-])C(F)(F)F.[Zn+2]	GST-UBA5 (Homo sapiens, UniProt Q9GZZ9)	5.40
Nc1ncnc2c1ncn2[C@@H]1O[C@H](C(=O)NCCN2CCNCCNCCNCC2)[C@@H](O)[C@H]1O.[Zn+2]	GST-UBA5 (Homo sapiens, UniProt Q9GZZ9)	5.12

// query I'm curious: which pIC50 was measured for `Nc1ncnc2c1ncn2[C@@H]1O[C@H](C(=O)NCCCCCCN2CCNCCNCCNCC2)[C@@H](O)[C@H]1O.[Zn+2]` tested on GST-UBA5 (Homo sapiens, UniProt Q9GZZ9)?
// result 4.42
